System: STAPHYLOCOCCUS AUREUS A5177
experiment: In vitro antibacterial activity, MIC, BHI agar dilution
Format: cell-based
experimentalConditions: S. aureus A5177, unit assumed
Measured MIC by item
Give the number; µg/mL is assumed, so skip it.

1. CC[C@H]1OC(=O)[C@H](C)C(=O)[C@H](C)[C@@H](O[C@@H]2O[C@H](C)C[C@H](N(C)C)[C@H]2O)[C@](C)(OC)C[C@@H](C)C2=NC3CN(Cc4ccccc4)CC3N3C(=O)O[C@@]1(C)[C@H]3[C@H]2C (some centres unmarked) : 0.2

Next compound, please.
Q: // lookup MIC for CC[C@H]1OC(=O)[C@H](C)C(=O)[C@H](C)[C@@H](O[C@@H]2O[C@H](C)C[C@H](N(C)C)[C@H]2O)[C@](C)(OC)C[C@@H](C)C2=NC3CN(CCN(C)C)CC3N3C(=O)O[C@@]1(C)[C@H]3[C@H]2C (some centres unmarked)
A: 1.56

###

Measured MIC by item
Test system: STAPHYLOCOCCUS AUREUS A5177
experiment: In vitro antibacterial activity, MIC, BHI agar dilution
Format: cell-based
experimentalConditions: S. aureus A5177, unit assumed
Give the number; µg/mL is assumed, so skip it.

Check out these entries, answers already filled in.
1. CCC1OC(=O)C(C)C(=O)C(C)C(OC2OC(C)CC(N(C)C)C2O)C(C)(OC)CC(C)C2=NC(CN(C)C)CN3C(=O)OC1(C)C3C2C (centres unmarked) [Example 97] : 0.2
2. CCC1OC(=O)C(C)C(=O)C(C)C(OC2OC(C)CC(N(C)C)C2O)C(C)(OC)CC(C)C2=NCC(CSc3ccccc3)(CN(C)C)N3C(=O)OC1(C)C3C2C (centres unmarked) [Example 135] : 1.56
3. CC[C@H]1OC(=O)[C@H](C)C(=O)[C@H](C)[C@@H](O[C@@H]2O[C@H](C)C[C@H](N(C)C)[C@H]2O)[C@](C)(OC)C[C@@H](C)C2=N[C@H](COCc3ccccc3)CN3C(=O)O[C@@]1(C)[C@H]3[C@H]2C [Example 88] : 0.2
4. CC[C@H]1OC(=O)[C@H](C)C(=O)[C@H](C)[C@@H](O[C@@H]2O[C@H](C)C[C@H](N(C)C)[C@H]2O)[C@](C)(OC)C[C@@H](C)C2=NC3CN(CCc4ccc(N)cc4)CC3N3C(=O)O[C@@]1(C)[C@H]3[C@H]2C (some centres unmarked) [Example 121] : 0.78

Q: // lookup MIC for CCOC(=O)CCN1CC2N=C3C(C)CC(C)(OC)C(OC4OC(C)CC(N(C)C)C4O)C(C)C(=O)C(C)C(=O)OC(CC)C4(C)OC(=O)N(C2C1)C4C3C (centres unmarked) [Example 130]
A: 0.78

###

Tested on: STAPHYLOCOCCUS EPIDERMIDIS 3519
Assay type: cell-based
experimentalConditions: S. epidermidis 3519; BHI agar; unit assumed
metricName: MIC

1) CCC1OC(=O)C(C)C(=O)C(C)C(OC2OC(C)CC(N(C)C)C2O)C(C)(OC)CC(C)C2=NC(COCc3cc(OC)cc(OC)c3)CN3C(=O)OC1(C)C3C2C (stereo not drawn) [Example 100] : 0.2 µg/mL
2) CC[C@H]1OC(=O)[C@H](C)C(=O)[C@H](C)[C@@H](O[C@@H]2O[C@H](C)C[C@H](N(C)C)[C@H]2O)[C@](C)(OC)C[C@@H](C)C2=NC[C@@H](C)N3C(=O)O[C@@]1(C)[C@H]3[C@H]2C [Example 9] : 0.39 µg/mL

Next compound, please.
Q: // lookup MIC for CC[C@H]1OC(=O)[C@H](C)[C@@H](O[C@H]2C[C@@](C)(OC)[C@@H](O)[C@H](C)O2)[C@H](C)[C@@H](O[C@@H]2O[C@H](C)C[C@H](N(C)C)[C@H]2O)[C@@H](C)C[C@@H](C)C2=NCCN3C(=O)O[C@@]1(C)[C@H]3[C@H]2C [Example 14]
A: 0.2 µg/mL
